Target: human glucagon-like peptide 1 receptor (human, UniProt P43220 24-463)
Assay: cell-based or functional assay
Where no end group is shown, it is not given here. [ ]: non-standard residue; d: D form. Aib = CC(C)(N)C(=O)O
Recorded hGLP-1R CRE Luc EC50 (pM) for the following binders
Give a bare numeral; the unit pM is implied.

Could you tell me which hGLP-1R CRE Luc EC50 (pM) is on file for H[Aib]HGTFTSDYSIYLEKQYA[Aib]EFVQWLLEGGPSSGAPPPS-NH2 (not fully specified (residue 16); printed as H-Aib-HGTFTSDYSIYLE-K[(2S)-2-amino-6-[[(2S)-2-amino-6-[[(4S)-4-carboxy-4-(19-carboxynonadecanoylamino)butanoyl]amino]hexanoyl]amino]hexanoyl]-QYA-Aib-EFVQWLLEGGPSSGAPPPS-NH2) [Compound No. 24] ?
6.8

Could you tell me which hGLP-1R CRE Luc EC50 (pM) is on file for Y[Aib]QGTFTSDYSIYLDKQAA[Aib]KFVQWLLEGGPSSGAPPPS-NH2 (not fully specified (residue 21); printed as Y-Aib-QGTFTSDYSIYLDKQAA-Aib-K[2-[2-[2-[[2-[2-[2-[[(4S)-4-carboxy-4-[[4-[(19-carboxynonadecanoylamino)methyl]cyclohexanecarbonyl]amino]butanoyl]amino]ethoxy]ethoxy]acetyl]amino]ethoxy]ethoxy]acetyl]-FVQWLLEGGPSSGAPPPS-NH2) [Compound No. 8] ?
12.1
